FYI, the data here is from paper PMC9518246.

Hi! I'm sharing some pIC50 results obtained with UniProt P22303.
Sequence (P22303 32-614): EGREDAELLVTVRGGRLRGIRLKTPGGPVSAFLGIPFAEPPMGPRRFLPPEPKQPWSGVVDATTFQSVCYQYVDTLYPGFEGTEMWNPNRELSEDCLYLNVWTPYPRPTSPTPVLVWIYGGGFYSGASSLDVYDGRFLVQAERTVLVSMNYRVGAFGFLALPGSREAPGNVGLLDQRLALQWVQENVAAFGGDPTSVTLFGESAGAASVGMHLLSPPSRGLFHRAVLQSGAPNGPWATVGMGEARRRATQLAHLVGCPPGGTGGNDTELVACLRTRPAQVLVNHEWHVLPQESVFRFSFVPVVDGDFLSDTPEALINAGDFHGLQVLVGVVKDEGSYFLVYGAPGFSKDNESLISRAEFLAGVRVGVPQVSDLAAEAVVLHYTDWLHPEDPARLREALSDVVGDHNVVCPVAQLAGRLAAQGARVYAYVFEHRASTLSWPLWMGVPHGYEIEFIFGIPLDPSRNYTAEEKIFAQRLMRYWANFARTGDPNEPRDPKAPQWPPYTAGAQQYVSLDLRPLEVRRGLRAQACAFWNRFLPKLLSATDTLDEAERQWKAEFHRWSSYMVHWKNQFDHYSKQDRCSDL
Give bare numbers, as −log10 of the molar value.

CS(=O)(=O)n1cc(/C=N/NC(=O)Cc2ccc(Cl)cc2)c2ccccc21 [Compound 7c]; 7.05
CS(=O)(=O)n1cc(/C=N/NC(=O)c2sc(=S)n(-c3ccccc3)c2N)c2ccccc21 [Compound 10b]; 7.19
COc1cc(/C(=C\c2cn(S(C)(=O)=O)c3ccccc23)C(=O)O)cc(OC)c1OC [Compound 3c]; 7.39

Field: pIC50. Fill in for each record below.
1. CS(=O)(=O)n1cc(/C=C/C(=O)c2ccc(NC(=O)CN3CCC(Cc4ccccc4)CC3)cc2)c2ccccc21 [Compound 6b]
2. CS(=O)(=O)n1cc(/C=C/C(=O)c2ccc(NC(=O)Cc3ccc(Cl)cc3)cc2)c2ccccc21 [Compound 5b]

1: 7.31; 2: 7.56
